Assay: Single dose PK, phase 1, healthy European men
Assay type: in vivo, human
Settings: male, human, plasma, sc, 0.001 mg, single SC 0.001 mg, read-out: T½ (median) (converted)
Where a SMILES comes first, the peptide text is derived from it. [ ]: non-standard residue; d: D form. Arg(Me) = CNC(=N)NCCC[C@H](N)C(=O)O; Hyp = O=C(O)[C@@H]1C[C@@H](O)CN1; azaGly = NNC(=O)O
property.label: half-life (h)

molecule | property.label | measured.value
CC(=O)O.CNC(=N)NCCC[C@H](NC(=O)[C@H](CC(C)C)NC(=O)NNC(=O)[C@H](Cc1ccccc1)NC(=O)[C@@H](NC(=O)[C@H](CC(N)=O)NC(=O)[C@@H]1C[C@@H](O)CN1C(=O)[C@@H](Cc1ccc(O)cc1)NC(C)=O)[C@@H](C)O)C(=O)N[C@@H](Cc1c[nH]c2ccccc12)C(N)=O [API-MA] (Ac-[dY][Hyp]NTF[azaGly]L[Arg(Me)]W-NH2) | half-life | 1.8

----------
Test: Pharmacokinetics in dogs after SC and IV administration
Conditions: dog, in vivo; dogs, SC 0.1 to 10 mg/kg; read-out: Tmax, range over the tested SC doses
Where a SMILES comes first, the peptide text is derived from it. [ ]: non-standard residue; d: D form. Arg(Me) = CNC(=N)NCCC[C@H](N)C(=O)O; Hyp = O=C(O)[C@@H]1C[C@@H](O)CN1; azaGly = NNC(=O)O
property.label: Tmax

molecule | property.label | measured.value
CC(=O)O.CNC(=N)NCCC[C@H](NC(=O)[C@H](CC(C)C)NC(=O)NNC(=O)[C@H](Cc1ccccc1)NC(=O)[C@@H](NC(=O)[C@H](CC(N)=O)NC(=O)[C@@H]1C[C@@H](O)CN1C(=O)[C@@H](Cc1ccc(O)cc1)NC(C)=O)[C@@H](C)O)C(=O)N[C@@H](Cc1c[nH]c2ccccc12)C(N)=O [API-MA] (Ac-[dY][Hyp]NTF[azaGly]L[Arg(Me)]W-NH2) | Tmax | 48 to 60 min

----------
Assay: Single dose PK, phase 1, healthy Japanese men
Type: in vivo, human
Conditions: male, human, plasma, sc, 0.004 mg, single SC bolus 0.004 mg, mean
Where a SMILES comes first, the peptide text is derived from it. [ ]: non-standard residue; d: D form. Arg(Me) = CNC(=N)NCCC[C@H](N)C(=O)O; Hyp = O=C(O)[C@@H]1C[C@@H](O)CN1; azaGly = NNC(=O)O
property.label: CL/F (mL/min)

molecule | property.label | measured.value
CC(=O)O.CNC(=N)NCCC[C@H](NC(=O)[C@H](CC(C)C)NC(=O)NNC(=O)[C@H](Cc1ccccc1)NC(=O)[C@@H](NC(=O)[C@H](CC(N)=O)NC(=O)[C@@H]1C[C@@H](O)CN1C(=O)[C@@H](Cc1ccc(O)cc1)NC(C)=O)[C@@H](C)O)C(=O)N[C@@H](Cc1c[nH]c2ccccc12)C(N)=O [API-MA] (Ac-[dY][Hyp]NTF[azaGly]L[Arg(Me)]W-NH2) | CL/F | 330

----------
Assay: Single dose PK, phase 1, healthy European men
Assay type: in vivo, human
Conditions: male, human, plasma, subcutaneous, 2-hour INF 1 mg, read-out: Tmax (median)
Where a SMILES comes first, the peptide text is derived from it. [ ]: non-standard residue; d: D form. Arg(Me) = CNC(=N)NCCC[C@H](N)C(=O)O; Hyp = O=C(O)[C@@H]1C[C@@H](O)CN1; azaGly = NNC(=O)O
property.label: Tmax (h)

compound | unit.symbol | measured.value
CC(=O)O.CNC(=N)NCCC[C@H](NC(=O)[C@H](CC(C)C)NC(=O)NNC(=O)[C@H](Cc1ccccc1)NC(=O)[C@@H](NC(=O)[C@H](CC(N)=O)NC(=O)[C@@H]1C[C@@H](O)CN1C(=O)[C@@H](Cc1ccc(O)cc1)NC(C)=O)[C@@H](C)O)C(=O)N[C@@H](Cc1c[nH]c2ccccc12)C(N)=O [API-MA] (Ac-[dY][Hyp]NTF[azaGly]L[Arg(Me)]W-NH2) | h | 2.25

----------
Assay: Pharmacokinetics in dogs after SC and IV administration
Conditions: dog, in vivo; dogs, SC 1 mg/kg; read-out: Cmax
Where a SMILES comes first, the peptide text is derived from it. [ ]: non-standard residue; d: D form. Arg(Me) = CNC(=N)NCCC[C@H](N)C(=O)O; Hyp = O=C(O)[C@@H]1C[C@@H](O)CN1; azaGly = NNC(=O)O

molecule | unit.symbol | Cmax
CC(=O)O.CNC(=N)NCCC[C@H](NC(=O)[C@H](CC(C)C)NC(=O)NNC(=O)[C@H](Cc1ccccc1)NC(=O)[C@@H](NC(=O)[C@H](CC(N)=O)NC(=O)[C@@H]1C[C@@H](O)CN1C(=O)[C@@H](Cc1ccc(O)cc1)NC(C)=O)[C@@H](C)O)C(=O)N[C@@H](Cc1c[nH]c2ccccc12)C(N)=O [API-MA] (Ac-[dY][Hyp]NTF[azaGly]L[Arg(Me)]W-NH2) | ng/mL | 883

----------
Assay: Single dose PK, phase 1, healthy European men
Format: in vivo, human
Settings: male, human, urine and plasma, single SC 0.01 mg, geometric mean, read-out: CLr (renal clearance) (converted)
Experimental: The study was conducted in France. Eighty-two healthy European male subjects aged 50 to 76 years were enrolled into nine cohorts. 81/82 subjects (98.8%) were white and 1/82 subject (1.2%) was black/African American. Subjects enrolled in the first six cohorts received 0.001, 0.003, 0.01, 0.03, 0.1, or 0.3 mg of API-MA or placebo by single SC bolus. In the 0.3 mg cohort, 6 subjects received API-MA and two received placebo. In the remaining cohorts, 7 subjects received API-MA and three received placebo. […]
Where a SMILES comes first, the peptide text is derived from it. [ ]: non-standard residue; d: D form. Arg(Me) = CNC(=N)NCCC[C@H](N)C(=O)O; Hyp = O=C(O)[C@@H]1C[C@@H](O)CN1; azaGly = NNC(=O)O
property.label: CL renal (mL/min)

compound | property.label | measured.value
CC(=O)O.CNC(=N)NCCC[C@H](NC(=O)[C@H](CC(C)C)NC(=O)NNC(=O)[C@H](Cc1ccccc1)NC(=O)[C@@H](NC(=O)[C@H](CC(N)=O)NC(=O)[C@@H]1C[C@@H](O)CN1C(=O)[C@@H](Cc1ccc(O)cc1)NC(C)=O)[C@@H](C)O)C(=O)N[C@@H](Cc1c[nH]c2ccccc12)C(N)=O [API-MA] (Ac-[dY][Hyp]NTF[azaGly]L[Arg(Me)]W-NH2) | CL renal | 17900

----------
Assay: Pharmacokinetics in rats after SC and IV administration
Conditions: rat, in vivo, sc, 1 mg/kg
Experimental: The PK of API-MA was studied in rats after SC and IV administration. The PK linearity of API-MA was also investigated in rats after IV administration. The plasma C5min and AUC(0-24) values increased dose-proportionally. […] The elimination T1/2 values were 0.4 hours at 0.01 and 0.1 mg/kg and 0.5 hours at 1 mg/kg. These findings indicate that the PK of API-FB was linear in rats after single IV administration over the dose range of 0.01 to 1 mg/kg. […]
Where a SMILES comes first, the peptide text is derived from it. [ ]: non-standard residue; d: D form. Arg(Me) = CNC(=N)NCCC[C@H](N)C(=O)O; Hyp = O=C(O)[C@@H]1C[C@@H](O)CN1; azaGly = NNC(=O)O
property.label: AUC(0-t)

molecule | property.label | measured.value
CNC(=N)NCCC[C@H](NC(=O)[C@H](CC(C)C)NC(=O)NNC(=O)[C@H](Cc1ccccc1)NC(=O)[C@@H](NC(=O)[C@H](CC(N)=O)NC(=O)[C@@H]1C[C@@H](O)CN1C(=O)[C@@H](Cc1ccc(O)cc1)NC(C)=O)[C@@H](C)O)C(=O)N[C@@H](Cc1c[nH]c2ccccc12)C(N)=O [Compound 1] (Ac-[dY][Hyp]NTF[azaGly]L[Arg(Me)]W-NH2) | AUC(0-t) | 804 ng·h/mL

----------
Experiment: Single dose PK, phase 1, healthy European men
Assay type: in vivo, human
Conditions: male, human, plasma, single SC 0.3 mg, geometric mean
Where a SMILES comes first, the peptide text is derived from it. [ ]: non-standard residue; d: D form. Arg(Me) = CNC(=N)NCCC[C@H](N)C(=O)O; Hyp = O=C(O)[C@@H]1C[C@@H](O)CN1; azaGly = NNC(=O)O

molecule | AUC(0-t) [ng·h/mL]
CC(=O)O.CNC(=N)NCCC[C@H](NC(=O)[C@H](CC(C)C)NC(=O)NNC(=O)[C@H](Cc1ccccc1)NC(=O)[C@@H](NC(=O)[C@H](CC(N)=O)NC(=O)[C@@H]1C[C@@H](O)CN1C(=O)[C@@H](Cc1ccc(O)cc1)NC(C)=O)[C@@H](C)O)C(=O)N[C@@H](Cc1c[nH]c2ccccc12)C(N)=O [API-MA] (Ac-[dY][Hyp]NTF[azaGly]L[Arg(Me)]W-NH2) | 13.2

From: patent US11013780B2
